# experimental target: Angiotensin II receptor (AT-1) type-1 (Rattus norvegicus, UniProt P29089+P25095)
# test name: In vitro binding affinity to angiotensin II receptor, type 1 in rat adrenal cortex preparation
# Assay type: tissue-based
# reported IC50; entries follow
Express your answer in nM, writing the number without its unit.

molecular string	result value
CCCCc1ccc(CN)c(=O)n1Cc1ccc(-c2ccccc2-c2nn[nH]n2)cc1	19
CCCCc1ccc(CNC(C)=O)c(=O)n1Cc1ccc(-c2ccccc2-c2nn[nH]n2)cc1	3.8
CCCCc1ccc(CNS(=O)(=O)c2ccccc2)c(=O)n1Cc1ccc(-c2ccccc2-c2nn[nH]n2)cc1	4.1

--- query ---
Asked: Missing value: IC50, Angiotensin II receptor (AT-1) type-1 (Rattus norvegicus, UniProt P29089+P25095), entry CCCCc1ccc(CN(Cc2ccccc2)S(=O)(=O)c2ccc(C)cc2)c(=O)n1Cc1ccc(-c2ccccc2-c2nn[nH]n2)cc1 . Fill in?
Given back: 16.5

----------
# experimental target: Angiotensin II receptor (AT-1) type-1 (Rattus norvegicus, UniProt P29089+P25095)
# test name: In vitro binding affinity to angiotensin II receptor, type 1 in rat adrenal cortex preparation
# Type: tissue-based
One threshold, 6 nM, splits the recorded IC50 values: lower ones are criterion met, equal or higher ones are criterion not met.

Worked set:
molecular string	group
CCCCc1ccc(CNS(=O)(=O)c2ccc(C)cc2)c(=O)n1Cc1ccc(-c2ccccc2-c2nn[nH]n2)cc1	criterion met
CCCCc1ccc(CNCc2ccccc2)c(=O)n1Cc1ccc(-c2ccccc2-c2nn[nH]n2)cc1	criterion met
CCCCc1ccc(CN(C)S(=O)(=O)c2ccccc2)c(=O)n1Cc1ccc(-c2ccccc2-c2nn[nH]n2)cc1	criterion met
CCCCc1ccc(CN(Cc2ccccc2)C(C)=O)c(=O)n1Cc1ccc(-c2ccccc2-c2nn[nH]n2)cc1	criterion met
CCCCc1ccc(CNS(C)(=O)=O)c(=O)n1Cc1ccc(-c2ccccc2-c2nn[nH]n2)cc1	criterion met

Asked: Just wondering, is IC50 of CCCCc1ccc(CN(C)S(=O)(=O)c2ccc(C)cc2)c(=O)n1Cc1ccc(-c2ccccc2-c2nn[nH]n2)cc1 below 6 nM?
Given back: criterion met

Asked: Same read-out for CCCCc1ccc(CNC(=O)CCC)c(=O)n1Cc1ccc(-c2ccccc2-c2nn[nH]n2)cc1 ?
Given back: criterion met

Asked: Same read-out for CCCCNC(=O)NCc1ccc(CCCC)n(Cc2ccc(-c3ccccc3-c3nn[nH]n3)cc2)c1=O ?
Given back: criterion not met

Asked: Same read-out for CCCCc1ccc(CN(C)S(C)(=O)=O)c(=O)n1Cc1ccc(-c2ccccc2-c2nn[nH]n2)cc1 ?
Given back: criterion met

Asked: Same read-out for CCCCc1ccc(CN(Cc2ccccc2)S(=O)(=O)c2ccccc2)c(=O)n1Cc1ccc(-c2ccccc2-c2nn[nH]n2)cc1 ?
Given back: criterion not met

Asked: Same read-out for CCCCc1ccc(CN(Cc2ccccc2)C(=O)OC(C)(C)C)c(=O)n1Cc1ccc(-c2ccccc2-c2nn[nH]n2)cc1 ?
Given back: criterion not met

Asked: Same read-out for CCCCc1ccc(CNC(=O)N(C)C)c(=O)n1Cc1ccc(-c2ccccc2-c2nn[nH]n2)cc1 ?
Given back: criterion met

Asked: Same read-out for CCCCc1cccc(=O)n1Cc1ccc(-c2ccccc2-c2nn[nH]n2)cc1 ?
Given back: criterion not met

Asked: Same read-out for CCCCc1ccc(CNC(=O)N(CC)CC)c(=O)n1Cc1ccc(-c2ccccc2-c2nn[nH]n2)cc1 ?
Given back: criterion not met

Asked: Same read-out for CCCCc1ccc(CN(CC)S(C)(=O)=O)c(=O)n1Cc1ccc(-c2ccccc2-c2nn[nH]n2)cc1 ?
Given back: criterion met

Asked: Same read-out for CCCCc1ccc(CNS(=O)(=O)C(F)(F)F)c(=O)n1Cc1ccc(-c2ccccc2-c2nn[nH]n2)cc1 ?
Given back: criterion not met
